- studyConditions: in benzene, 333.15 K
quantity: solubility (mole fraction)
One number for each entry.

// fetch solubility (mole fraction) given entry O=P(Oc1ccccc1)(Oc1ccccc1)N1CCN(P(=O)(Oc2ccccc2)Oc2ccccc2)CC1
0.00972

###

- studyConditions: in toluene, 328.15 K
quantity: solubility (mole fraction)
Numbers only.

// fetch solubility (mole fraction) given entry O=P(Oc1ccccc1)(Oc1ccccc1)N1CCN(P(=O)(Oc2ccccc2)Oc2ccccc2)CC1
0.00213

###

- studyConditions: in toluene, 308.15 K
quantity: solubility (mole fraction)
One number for each entry.

// fetch solubility (mole fraction) given entry O=P(Oc1ccccc1)(Oc1ccccc1)N1CCN(P(=O)(Oc2ccccc2)Oc2ccccc2)CC1
0.000986

###

- studyConditions: in THF, 293.15 K
quantity: solubility (mole fraction)

// fetch solubility (mole fraction) given entry O=P(Oc1ccccc1)(Oc1ccccc1)N1CCN(P(=O)(Oc2ccccc2)Oc2ccccc2)CC1
0.00109

###

- studyConditions: in acetone, 313.15 K
quantity: solubility (mole fraction)
Numbers only.

// fetch solubility (mole fraction) given entry O=P(Oc1ccccc1)(Oc1ccccc1)N1CCN(P(=O)(Oc2ccccc2)Oc2ccccc2)CC1
0.000717

###

- studyConditions: in benzene, 328.15 K
quantity: solubility (mole fraction)
Numbers only.

// fetch solubility (mole fraction) given entry O=P(Oc1ccccc1)(Oc1ccccc1)N1CCN(P(=O)(Oc2ccccc2)Oc2ccccc2)CC1
0.00834

###

- studyConditions: in methanol, 323.15 K
quantity: solubility (mole fraction)

// fetch solubility (mole fraction) given entry O=P(Oc1ccccc1)(Oc1ccccc1)N1CCN(P(=O)(Oc2ccccc2)Oc2ccccc2)CC1
0.000656

###

- studyConditions: in benzene, 298.15 K
quantity: solubility (mole fraction)

// fetch solubility (mole fraction) given entry O=P(Oc1ccccc1)(Oc1ccccc1)N1CCN(P(=O)(Oc2ccccc2)Oc2ccccc2)CC1
0.00319

###

- studyConditions: in toluene, 318.15 K
quantity: solubility (mole fraction)
Numbers only.

// fetch solubility (mole fraction) given entry O=P(Oc1ccccc1)(Oc1ccccc1)N1CCN(P(=O)(Oc2ccccc2)Oc2ccccc2)CC1
0.00148

###

- studyConditions: in dichloromethane, 303.15 K
quantity: solubility (mole fraction)
Numbers only.

// fetch solubility (mole fraction) given entry O=P(Oc1ccccc1)(Oc1ccccc1)N1CCN(P(=O)(Oc2ccccc2)Oc2ccccc2)CC1
0.0106

###

- studyConditions: in benzene, 293.15 K
quantity: solubility (mole fraction)
Numbers only.

// fetch solubility (mole fraction) given entry O=P(Oc1ccccc1)(Oc1ccccc1)N1CCN(P(=O)(Oc2ccccc2)Oc2ccccc2)CC1
0.00268

###

- studyConditions: in toluene, 303.15 K
quantity: solubility (mole fraction)
Give bare numbers.

// fetch solubility (mole fraction) given entry O=P(Oc1ccccc1)(Oc1ccccc1)N1CCN(P(=O)(Oc2ccccc2)Oc2ccccc2)CC1
0.000782

###

- studyConditions: in dichloromethane, 288.15 K
quantity: solubility (mole fraction)
One number for each entry.

// fetch solubility (mole fraction) given entry O=P(Oc1ccccc1)(Oc1ccccc1)N1CCN(P(=O)(Oc2ccccc2)Oc2ccccc2)CC1
0.00585

###

- studyConditions: in ethyl acetate, 338.15 K
quantity: solubility (mole fraction)
Give bare numbers.

// fetch solubility (mole fraction) given entry O=P(Oc1ccccc1)(Oc1ccccc1)N1CCN(P(=O)(Oc2ccccc2)Oc2ccccc2)CC1
0.00521

###

- studyConditions: in toluene, 293.15 K
quantity: solubility (mole fraction)
Numbers only.

// fetch solubility (mole fraction) given entry O=P(Oc1ccccc1)(Oc1ccccc1)N1CCN(P(=O)(Oc2ccccc2)Oc2ccccc2)CC1
0.000506

###

- studyConditions: in benzene, 323.15 K
quantity: solubility (mole fraction)

// fetch solubility (mole fraction) given entry O=P(Oc1ccccc1)(Oc1ccccc1)N1CCN(P(=O)(Oc2ccccc2)Oc2ccccc2)CC1
0.00724

###

- studyConditions: in benzene, 338.15 K
quantity: solubility (mole fraction)

// fetch solubility (mole fraction) given entry O=P(Oc1ccccc1)(Oc1ccccc1)N1CCN(P(=O)(Oc2ccccc2)Oc2ccccc2)CC1
0.0112

###

- studyConditions: in ethyl acetate, 328.15 K
quantity: solubility (mole fraction)
Answers are plain numbers.

// fetch solubility (mole fraction) given entry O=P(Oc1ccccc1)(Oc1ccccc1)N1CCN(P(=O)(Oc2ccccc2)Oc2ccccc2)CC1
0.0036

###

- studyConditions: in benzene, 343.15 K
quantity: solubility (mole fraction)
Numbers only.

// fetch solubility (mole fraction) given entry O=P(Oc1ccccc1)(Oc1ccccc1)N1CCN(P(=O)(Oc2ccccc2)Oc2ccccc2)CC1
0.0129

###

- studyConditions: in benzene, 313.15 K
quantity: solubility (mole fraction)
One number for each entry.

// fetch solubility (mole fraction) given entry O=P(Oc1ccccc1)(Oc1ccccc1)N1CCN(P(=O)(Oc2ccccc2)Oc2ccccc2)CC1
0.00549

###

- studyConditions: in THF, 308.15 K
quantity: solubility (mole fraction)
One number for each entry.

// fetch solubility (mole fraction) given entry O=P(Oc1ccccc1)(Oc1ccccc1)N1CCN(P(=O)(Oc2ccccc2)Oc2ccccc2)CC1
0.00236

###

- studyConditions: in ethyl acetate, 303.15 K
quantity: solubility (mole fraction)

// fetch solubility (mole fraction) given entry O=P(Oc1ccccc1)(Oc1ccccc1)N1CCN(P(=O)(Oc2ccccc2)Oc2ccccc2)CC1
0.00122

###

- studyConditions: in THF, 298.15 K
quantity: solubility (mole fraction)
One number for each entry.

// fetch solubility (mole fraction) given entry O=P(Oc1ccccc1)(Oc1ccccc1)N1CCN(P(=O)(Oc2ccccc2)Oc2ccccc2)CC1
0.00143

###

- studyConditions: in dichloromethane, 298.15 K
quantity: solubility (mole fraction)
Numbers only.

// fetch solubility (mole fraction) given entry O=P(Oc1ccccc1)(Oc1ccccc1)N1CCN(P(=O)(Oc2ccccc2)Oc2ccccc2)CC1
0.00878

###

- studyConditions: in ethyl acetate, 323.15 K
quantity: solubility (mole fraction)
Answers are plain numbers.

// fetch solubility (mole fraction) given entry O=P(Oc1ccccc1)(Oc1ccccc1)N1CCN(P(=O)(Oc2ccccc2)Oc2ccccc2)CC1
0.00301

###

- studyConditions: in ethanol, 308.15 K
quantity: solubility (mole fraction)
Answers are plain numbers.

// fetch solubility (mole fraction) given entry O=P(Oc1ccccc1)(Oc1ccccc1)N1CCN(P(=O)(Oc2ccccc2)Oc2ccccc2)CC1
0.000946

###

- studyConditions: in THF, 323.15 K
quantity: solubility (mole fraction)
Answers are plain numbers.

// fetch solubility (mole fraction) given entry O=P(Oc1ccccc1)(Oc1ccccc1)N1CCN(P(=O)(Oc2ccccc2)Oc2ccccc2)CC1
0.00493

###

- studyConditions: in ethyl acetate, 313.15 K
quantity: solubility (mole fraction)

// fetch solubility (mole fraction) given entry O=P(Oc1ccccc1)(Oc1ccccc1)N1CCN(P(=O)(Oc2ccccc2)Oc2ccccc2)CC1
0.00194

###

- studyConditions: in toluene, 343.15 K
quantity: solubility (mole fraction)
Numbers only.

// fetch solubility (mole fraction) given entry O=P(Oc1ccccc1)(Oc1ccccc1)N1CCN(P(=O)(Oc2ccccc2)Oc2ccccc2)CC1
0.00371

###

- studyConditions: in chloroform, 323.15 K
quantity: solubility (mole fraction)
One number for each entry.

// fetch solubility (mole fraction) given entry O=P(Oc1ccccc1)(Oc1ccccc1)N1CCN(P(=O)(Oc2ccccc2)Oc2ccccc2)CC1
0.0245

###

- studyConditions: in acetone, 303.15 K
quantity: solubility (mole fraction)
Give bare numbers.

// fetch solubility (mole fraction) given entry O=P(Oc1ccccc1)(Oc1ccccc1)N1CCN(P(=O)(Oc2ccccc2)Oc2ccccc2)CC1
0.000559

###

- studyConditions: in ethanol, 338.15 K
quantity: solubility (mole fraction)
Numbers only.

// fetch solubility (mole fraction) given entry O=P(Oc1ccccc1)(Oc1ccccc1)N1CCN(P(=O)(Oc2ccccc2)Oc2ccccc2)CC1
0.00269

###

- studyConditions: in toluene, 323.15 K
quantity: solubility (mole fraction)

// fetch solubility (mole fraction) given entry O=P(Oc1ccccc1)(Oc1ccccc1)N1CCN(P(=O)(Oc2ccccc2)Oc2ccccc2)CC1
0.00178

###

- studyConditions: in ethanol, 323.15 K
quantity: solubility (mole fraction)
One number for each entry.

// fetch solubility (mole fraction) given entry O=P(Oc1ccccc1)(Oc1ccccc1)N1CCN(P(=O)(Oc2ccccc2)Oc2ccccc2)CC1
0.00158

###

- studyConditions: in methanol, 298.15 K
quantity: solubility (mole fraction)
Give bare numbers.

// fetch solubility (mole fraction) given entry O=P(Oc1ccccc1)(Oc1ccccc1)N1CCN(P(=O)(Oc2ccccc2)Oc2ccccc2)CC1
5.77e-05

###

- studyConditions: in ethanol, 343.15 K
quantity: solubility (mole fraction)

// fetch solubility (mole fraction) given entry O=P(Oc1ccccc1)(Oc1ccccc1)N1CCN(P(=O)(Oc2ccccc2)Oc2ccccc2)CC1
0.0032

###

- studyConditions: in THF, 328.15 K
quantity: solubility (mole fraction)
Numbers only.

// fetch solubility (mole fraction) given entry O=P(Oc1ccccc1)(Oc1ccccc1)N1CCN(P(=O)(Oc2ccccc2)Oc2ccccc2)CC1
0.00605

###

- studyConditions: in chloroform, 298.15 K
quantity: solubility (mole fraction)
One number for each entry.

// fetch solubility (mole fraction) given entry O=P(Oc1ccccc1)(Oc1ccccc1)N1CCN(P(=O)(Oc2ccccc2)Oc2ccccc2)CC1
0.0146
